Target desc: 5-hydroxytryptamine receptor 1A (Homo sapiens, UniProt P08908)
Sequence (P08908 whole entry): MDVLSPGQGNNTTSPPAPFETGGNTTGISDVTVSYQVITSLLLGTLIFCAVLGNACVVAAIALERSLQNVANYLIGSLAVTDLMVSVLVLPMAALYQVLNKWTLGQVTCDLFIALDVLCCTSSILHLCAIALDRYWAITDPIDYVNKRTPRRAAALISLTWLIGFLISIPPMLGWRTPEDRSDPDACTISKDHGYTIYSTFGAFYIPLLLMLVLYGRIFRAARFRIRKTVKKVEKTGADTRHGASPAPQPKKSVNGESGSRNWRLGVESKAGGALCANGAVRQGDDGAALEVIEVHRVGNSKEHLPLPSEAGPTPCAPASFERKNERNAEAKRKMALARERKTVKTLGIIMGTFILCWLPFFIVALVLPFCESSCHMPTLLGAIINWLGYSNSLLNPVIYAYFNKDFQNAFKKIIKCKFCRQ
Procedure details: biochemical
Description: Displacement of [3H]8-OH-DPAT from human cloned 5HT1A receptor expressed in HEK293 EBNA cells after 1 hr by liquid scintillation counting
Observable: IC50 (nM)
Quick note: give the figure in nM, leave out the unit.

# annotated cases, reported IC50 shown
Compound: O=C(N(CCN1CCN(c2ccccc2O)CC1)c1ccccn1)C12CCC(I)(CC1)CC2
IC50 [nM]: 4.57
--
Compound: COc1ccccc1N1CCN(CCN(C(=O)C23CCC(I)(CC2)C3)c2ccccn2)CC1
IC50 [nM]: 2.02
--
Compound: O=C(N(CCN1CCN(c2ccccc2O)CC1)c1ccccn1)C12CC3CC(C1)C(I)C(C3)C2 (centres undefined)
IC50 [nM]: 3.95

Proceed to the following item.
Exam item: Fill: IC50 (5-hydroxytryptamine receptor 1A (Homo sapiens, UniProt P08908)) for this compound O=C(N(CCN1CCN(c2ccccc2O)CC1)c1ccccn1)C12C3C4C1C1C2C3C41I (centres undefined)
Marked response: 1.5

* * *

Target desc: 5-hydroxytryptamine receptor 1B (Homo sapiens, UniProt P28222)
Sequence (P28222 whole entry): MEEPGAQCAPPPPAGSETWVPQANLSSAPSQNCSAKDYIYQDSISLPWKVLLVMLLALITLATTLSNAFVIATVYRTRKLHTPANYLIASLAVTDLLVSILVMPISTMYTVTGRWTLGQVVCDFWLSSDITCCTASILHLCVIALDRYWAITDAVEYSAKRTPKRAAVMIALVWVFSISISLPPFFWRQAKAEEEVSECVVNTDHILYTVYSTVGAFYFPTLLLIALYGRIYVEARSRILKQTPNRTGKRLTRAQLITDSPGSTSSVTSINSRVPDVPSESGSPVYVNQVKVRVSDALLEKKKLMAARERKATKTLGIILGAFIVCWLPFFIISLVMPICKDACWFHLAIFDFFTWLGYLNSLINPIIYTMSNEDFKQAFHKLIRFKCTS
Observable: pKi
Give only the number. pKi is defined as minus log10 of concentration in molar units.

Exam item: Determine reported pKi for O=C(N(CCN1CCN(c2ccccc2O)CC1)c1ccccn1)C12C3C4C1C1C2C3C41I (stereo unspecified) ; test system: 5-hydroxytryptamine receptor 1B (Homo sapiens, UniProt P28222).
Marked response: 6.57

* * *

Overview of recorded pKi for various compounds
Protein target, amino acids: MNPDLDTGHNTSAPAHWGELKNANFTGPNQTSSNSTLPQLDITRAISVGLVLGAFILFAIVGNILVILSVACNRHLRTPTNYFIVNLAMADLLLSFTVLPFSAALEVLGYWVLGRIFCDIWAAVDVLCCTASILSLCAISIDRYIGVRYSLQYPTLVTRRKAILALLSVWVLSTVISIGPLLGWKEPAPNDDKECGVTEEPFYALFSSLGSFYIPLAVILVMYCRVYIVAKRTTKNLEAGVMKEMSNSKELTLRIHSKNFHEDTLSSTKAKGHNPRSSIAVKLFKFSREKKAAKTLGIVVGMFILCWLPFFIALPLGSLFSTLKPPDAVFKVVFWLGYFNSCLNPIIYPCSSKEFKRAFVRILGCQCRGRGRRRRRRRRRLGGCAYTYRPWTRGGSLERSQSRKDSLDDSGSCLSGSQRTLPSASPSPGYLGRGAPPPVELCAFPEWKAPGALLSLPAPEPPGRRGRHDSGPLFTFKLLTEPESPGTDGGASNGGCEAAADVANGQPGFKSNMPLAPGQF
pKi (log units): -log10 of the concentration in mol/L.

Exam item: Return the recorded pKi value; entry: COc1ccccc1N1CCN(CCN(C(=O)C23C4C5C2C2C3C4C52I)c2ccccn2)CC1 (configuration not stated)
Marked response: 6.73

Exam item: Please give measured pKi of the following entry: O=C(N(CCN1CCN(c2ccccc2O)CC1)c1ccccn1)C12C3C4C1C1C2C3C41I (configuration not stated)
Marked response: 7.60

* * *

Target desc: 5-hydroxytryptamine receptor 7 (Homo sapiens, UniProt P34969)
Sequence (P34969 whole entry): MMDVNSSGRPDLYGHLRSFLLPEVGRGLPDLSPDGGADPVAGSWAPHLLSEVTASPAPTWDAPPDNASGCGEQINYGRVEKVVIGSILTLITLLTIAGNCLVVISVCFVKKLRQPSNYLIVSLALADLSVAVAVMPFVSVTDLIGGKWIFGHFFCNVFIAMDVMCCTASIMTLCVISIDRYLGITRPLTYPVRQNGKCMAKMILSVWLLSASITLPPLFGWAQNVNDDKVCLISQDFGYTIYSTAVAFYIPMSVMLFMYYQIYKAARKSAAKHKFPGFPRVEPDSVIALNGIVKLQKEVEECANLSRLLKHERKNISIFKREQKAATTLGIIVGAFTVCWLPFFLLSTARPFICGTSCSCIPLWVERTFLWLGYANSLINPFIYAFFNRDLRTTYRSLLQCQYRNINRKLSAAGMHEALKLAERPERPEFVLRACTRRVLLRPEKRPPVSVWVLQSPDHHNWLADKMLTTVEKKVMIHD
Observable: pKi
Note on pKi: it is the negative log10 of concentration, concentration in mol/L.

Exam item: Note down pKi recorded for O=C(N(CCN1CCN(c2ccccc2O)CC1)c1ccccn1)C12C3C4C1C1C2C3C41I (stereo unspecified)
Marked response: 7.30

* * *

Each entry below carries its recorded pKi.
Target desc: 5-hydroxytryptamine receptor 1A (Homo sapiens)
Procedure details: biochemical
Note on units: pKi is unitless, being -log10 of a concentration expressed in mol/L.

Compound: O=C(N(CCN1CCN(c2ccccc2O)CC1)c1ccccn1)C12CC3CC(C1)C(I)C(C3)C2 (centres undefined)
pKi: 8.77
--
Compound: COc1ccccc1N1CCN(CCN(C(=O)C23CCC(I)(CC2)C3)c2ccccn2)CC1
pKi: 9.06
--
Compound: O=C(C1CCCCC1)N(CCN1CCN(c2ccccc2O)CC1)c1ccccn1
pKi: 9.48
--
Compound: O=C(N(CCN1CCN(c2ccccc2O)CC1)c1ccccn1)C12C3C4C1C1C2C3C41I (centres undefined)
pKi: 9.19
--
Compound: COc1ccccc1N1CCN(CCN(C(=O)C23C4C5C2C2C3C4C52I)c2ccccn2)CC1 (centres undefined)
pKi: 8.95

Exam item: Read off the recorded pKi for "O=C(N(CCN1CCN(c2ccccc2O)CC1)c1ccccn1)C12CCC(I)(CC1)CC2"
Marked response: 8.71

Exam item: Return pKi for the following compound: "O=C(N(CCN1CCN(c2ccccc2O)CC1)c1ccccn1)C12CCC(I)(CC1)C2"
Marked response: 9.33

Exam item: Give the reported pKi for this compound. "COc1ccccc1N1CCN(CCN(C(=O)C23CC4CC(CC(I)(C4)C2)C3)c2ccccn2)CC1"
Marked response: 8.67

Exam item: // fetch pKi given entry "COc1ccccc1N1CCN(CCN(C(=O)C23CCC(I)(CC2)CC3)c2ccccn2)CC1"
Marked response: 8.95

* * *

Observed Ki, system 5-hydroxytryptamine receptor 1A (Homo sapiens, UniProt P08908).
Your answer is read as nM, so omit the unit and give the number.

Molecule: COc1ccccc1N1CCN(CCN(C(=O)C23C4C5C2C2C3C4C52I)c2ccccn2)CC1 (configuration not stated)
Target desc: 5-hydroxytryptamine receptor 1A (Homo sapiens, UniProt P08908)
Val: 2.2

Exam item: Indicate its recorded Ki; the molecule in question is O=C(N(CCN1CCN(c2ccccc2O)CC1)c1ccccn1)C12C3C4C1C1C2C3C41I (configuration not stated)
Marked response: 1.4
